System: HEK-293T
method summary: Multiplex assay against HEK293T
Format: toxicity, cell-based
experimental parameters: human, 48 h, 1 µM, compound concentration 1 uM, replicate 2
parameter measured: Total Cell Count
Reply briefly: the number, and no unit.

### Prompt Recorded Total Cell Count for `O=C1NC(=O)C(c2cnc3ccccn23)=C1c1cn2c3c(cc(F)cc13)CN(C(=O)N1CCCCC1)CC2` , please?
### Response 309

### Prompt Given the entry `Cc1cc(C)c(S(=O)(=O)N(Cc2ccc(-c3cccc(S(C)(=O)=O)c3)cc2)Cc2ccc(C(F)(F)F)o2)c(C)c1` , report its measured Total Cell Count.
### Response 474

### Prompt For the compound shown here, `C=C1/C(=C\C=C2/CCC[C@]3(C)[C@@H]([C@H](C)/C=C/[C@H](C)C(C)C)CC[C@@H]23)C[C@@H](O)C[C@@H]1O` , give the reported Total Cell Count.
### Response 601

### Prompt Fill blank: measured Total Cell Count of the compound `CCc1cccc(CC)c1NC(=O)c1nn(C)c2c1CCc1cnc(Nc3ccc(C(=O)NC4CCN(C)CC4)cc3OC(F)(F)F)nc1-2` is ____.
### Response 410
